test.protocol: Cytotoxicity against mouse BV-2 cells assessed as cell viability by MTT assay
Type: cell-based
Set-up: concentration or dose not given beside the values
condition.info: read-out: Activity

| smiles.text | unit.text | viability |
| --- | --- | --- |
| C=C(C)[C@@H]1CC[C@]2(C(=O)O)CC[C@]3(C)[C@H](CC[C@@H]4[C@@]5(C)CCC(=O)C(C)(C)[C@@H]5CC[C@]43C)[C@@H]12 | % | 102 |
| C=C(C)[C@@H]1CC[C@]2(C(=O)O)CC[C@]3(C)[C@H](CC[C@@H]4[C@@]5(C)C[C@@H](O)C(=O)C(C)(C)[C@@H]5C[C@H](O)[C@]43C)[C@@H]12 | % | 106 |
| C=C(COC(C)=O)[C@@H]1CC[C@]2(C(=O)O)C[C@H](O)[C@]3(C)[C@H](CC[C@@H]4[C@@]5(C)CCC(=O)C(C)(C)[C@@H]5CC[C@]43C)[C@@H]12 | % | 101 |
| C=C(C)[C@@H]1CC[C@]2(C(=O)O)C[C@H](O)[C@]3(C)[C@H](CC[C@@H]4[C@@]5(C)CCC(=O)[C@@](C)(COC(C)=O)[C@@H]5CC[C@]43C)[C@@H]12 | % | 102 |
| C=C(C)[C@@H]1C[C@@H](O)[C@]2(C(=O)O)CC[C@]3(C)[C@H](CC[C@@H]4[C@@]5(C)CCC(=O)C(C)(C)[C@@H]5C[C@H](O)[C@]43C)[C@@H]12 | % | 101 |
